experiment: Toxicity liver stage against HepG2, at 10uM; type: cell-based; design: test concentration 10 uM, cell line HepG2-A16-CD81EGFP; details: human, HepG2-A16-CD81EGFP cells; read-out: INHIBITION
Would you mind telling me the reported cytotoxicity at 10 µM of each entry?
// units = %; emit number, no label

Query :: Entry Cc1nc(C)c(C(=O)N2Cc3ccccc3OCC2Cn2ccnc2)s1 (stereo unspecified) needs its cytotoxicity at 10 µM filled in; supply it.
Result :: 9.21

Query :: # return recorded cytotoxicity at 10 µM for input "N#Cc1ccc(C(=O)O)nc1C=Cc1cccc(Br)c1"
Result :: 5.09

Query :: Report cytotoxicity at 10 µM for Cn1ccnc1C(=O)N1CCC2(CCN2CC2CC2)C1 (stereo unspecified)
Result :: 11.8

Query :: Fill in reported cytotoxicity at 10 µM for this entry: Cc1ccc(N2CCCC(c3[nH]ncc3-c3ccccc3)C2)nn1 (stereo unspecified)
Result :: 2.51

Query :: Consider the compound Cc1ccnc(N2CCCC(c3noc(C(C)C)n3)C2)n1 (stereo unspecified) and give its recorded cytotoxicity at 10 µM.
Result :: 21.9

Query :: Give cytotoxicity at 10 µM for "CS(=O)(=O)N1CC(c2n[nH]c3ncccc23)C1"
Result :: -23.4

----------
Answer each item with its documented cytotoxicity at 10 µM.
assay: Toxicity liver stage against HepG2, at 10uM; assay type: cell-based; set-up: test concentration 10 uM, cell line HepG2-A16-CD81EGFP; settings: human, HepG2-A16-CD81EGFP cells; read-out: INHIBITION
Dear colleague, please return just the value in %, with no unit written.

Query :: In one line, give reported cytotoxicity at 10 µM of the entry "Cc1cc(S(=O)(=O)N(C)CC(N)=O)ccc1Br" .
Result :: 15

Query :: Specify reported cytotoxicity at 10 µM for the molecule shown: "COc1ccc(S(=O)(=O)NCCn2cnc(C)cc2=O)cc1C"
Result :: 7.69

Query :: Consider the molecule "CSc1ccc(CNC2CCN(CCc3ccncc3)CC2)cc1" and give its recorded cytotoxicity at 10 µM.
Result :: -8.14

Query :: # return recorded cytotoxicity at 10 µM for input "CSCCCN(CCN1CCOCC1)Cc1ccco1"
Result :: 8.05

Query :: Let me know recorded cytotoxicity at 10 µM for OCC(O)CSCc1cn(-c2ccc(F)c(Cl)c2)nn1 (stereo not given) , thanks.
Result :: 9.51

----------
assay: Toxicity liver stage against HepG2, at 10uM; format: cell-based; design: test concentration 10 uM, cell line HepG2-A16-CD81EGFP; settings: human, HepG2-A16-CD81EGFP cells; read-out: INHIBITION
Provide the recorded cytotoxicity at 10 µM for the entries that follow.
Field: numeric (%). Do not append units.

Query :: Please report cytotoxicity at 10 µM for the following compound: "c1cc(-c2n[nH]c(CNc3nnc(C4CC4)o3)n2)ccn1"
Result :: -2.59

Query :: Tell me its cytotoxicity at 10 µM given CC(=O)N1CCCc2ccc(S(=O)(=O)N3CCCCC3C)cc21 (stereo not given) as the entry.
Result :: -15.1

Query :: Supply cytotoxicity at 10 µM value. Item: Cc1cc(CN(Cc2cccnc2)CC2CCCO2)on1 (stereo not given)
Result :: -7.03

Query :: Output cytotoxicity at 10 µM of O=C1c2ncccc2C(CCO)N1Cc1ccccc1 (stereo not given)
Result :: -4.26

Query :: Hello, please tell me recorded cytotoxicity at 10 µM for this one: O=C(NCC1CC[C@@]2(CNCCOC2)O1)c1cccnc1 (stereo not given in full)
Result :: 2.32

Query :: Please give the documented cytotoxicity at 10 µM of Cc1ccc(CN2CC(C(=O)NCC3CC3)C3(CCOCC3)C2)s1 (stereo not given)
Result :: -3.66

Query :: Return cytotoxicity at 10 µM (reported value) for this compound: "CN(Cc1ccco1)[C@@H]1CN(Cc2ccncc2)C[C@@H]2CCCO[C@@H]21"
Result :: 0.361

Query :: State its cytotoxicity at 10 µM for this compound: "COc1ccccc1OCC(=O)NS(=O)(=O)c1ccc(F)cc1F"
Result :: 8.68

Query :: Dear colleague, please send me the reported cytotoxicity at 10 µM for "c1cncc(-n2cnnc2CCCN2CCOCC2)c1" when you can.
Result :: 1.5

Query :: Please indicate cytotoxicity at 10 µM recorded for "Cc1cnn(CCNCc2ccc(OCc3csc(C)n3)cc2)c1"
Result :: -6.32

Query :: For the compound Cc1ccc(CNCC(C)Oc2ccccn2)cc1 (stereo not given) , give its reported cytotoxicity at 10 µM.
Result :: 5.4

Query :: Consider the compound Cn1cc(C2COC3(CCN(C(=O)c4cccc(O)c4)CC3)C2)cn1 (stereo not given) and give its recorded cytotoxicity at 10 µM.
Result :: -73.3

Query :: Return cytotoxicity at 10 µM (reported value) for this compound: CCc1nc(CN2CCCC(NCc3cccc(C(N)=O)c3)C2)no1 (stereo not given)
Result :: 1.56

Query :: Indicate the recorded cytotoxicity at 10 µM value for this compound: "O=C(Cc1ccccc1Cl)Nc1ccn(CCN2CCOCC2)n1"
Result :: -5.44

Query :: Give me measured cytotoxicity at 10 µM, please, for this compound: "CO[C@H]1CN(C)S(=O)(=O)[C@@]12CCN(Cc1ccccc1)C2"
Result :: 1.79

Query :: Give the reported value of cytotoxicity at 10 µM for this record: "Cc1ncc2c(n1)CN(CC(=O)Nc1nncs1)CC2"
Result :: -10.8

Query :: Item "CCn1cnnc1C1CCN(C(=O)c2ccc3c(c2)nnn3C)CC1" : provide cytotoxicity at 10 µM
Result :: 10.9

Query :: Check the records and state cytotoxicity at 10 µM for "CN1CCN2C(=O)N(C3CCCCC3)C[C@H]2C1"
Result :: -3.1

Query :: State its cytotoxicity at 10 µM for this compound: CN(C)C(=O)c1cccc(NC(=O)CN2CCCCC2C2OCCO2)c1 (stereo not given)
Result :: -6.95

Query :: Look up and state reported cytotoxicity at 10 µM for "Cc1n[nH]cc1CNCC1(c2ccccc2Cl)CCOCC1"
Result :: 8.16

Query :: Indicate the recorded cytotoxicity at 10 µM value for this compound: "COc1cc(N2CC[C@H]3O[C@@H](C(=O)NC4CCCC4)CC[C@H]32)ncn1"
Result :: 13.2

Query :: Using the record for "CN(C)C(=O)N[C@@H]1CN(S(C)(=O)=O)[C@@H]2CCCO[C@@H]21" , state its measured cytotoxicity at 10 µM.
Result :: 2.62

Query :: // Input: "Cc1ccccc1CSc1ncc(Br)c(C(=O)O)n1" . Output its cytotoxicity at 10 µM only.
Result :: 6.99

Query :: Indicate its recorded cytotoxicity at 10 µM; the compound in question is NC(=O)C1(CCCc2ccccn2)CCCN(c2ncccn2)C1 (stereo not given)
Result :: -5.69

Query :: Quickly give me recorded cytotoxicity at 10 µM for CCC(C)NC(=O)c1cc(S(=O)(=O)N(C)C)c(C)s1 (stereo not given)
Result :: -2.75

Query :: Please give measured cytotoxicity at 10 µM of the following entry: "O=C(NCCNC1CCCCC1)c1cccs1"
Result :: -12.7

Query :: Supply cytotoxicity at 10 µM value. Item: "CN(C)C(=O)N1CCc2ccc(=O)[nH]c2CC1"
Result :: 5.39

Query :: Please give the documented cytotoxicity at 10 µM of "CN(C)Cc1ccccc1NC(=O)c1ccc(C#N)cc1"
Result :: 4.2

Query :: Write down cytotoxicity at 10 µM measured for item "COc1ccc(CN2CCn3cc(CN4CCCCC4)nc3C2)cc1"
Result :: 4.7

Query :: # return recorded cytotoxicity at 10 µM for entry "Cn1nccc1C1CCN(Cc2csc(-c3ncccn3)n2)CC1"
Result :: -1.91

Query :: Kindly indicate its recorded cytotoxicity at 10 µM. Item: "CCc1ncc(C(=O)NC(C)(C)CC)s1"
Result :: -0.343

Query :: Please report the measured cytotoxicity at 10 µM for "COc1ccccc1CN(Cc1cccc(C)c1)C(=O)[C@@H](N)CC(=O)O"
Result :: -47.7

Query :: Complete the entry with cytotoxicity at 10 µM for CC1CN(C(=O)CCc2cc(Br)cs2)CCO1 (stereo not given)
Result :: -8.48

Query :: Give reported cytotoxicity at 10 µM value for "CC(C)(C)NS(=O)(=O)c1ccc(NC(=O)C2CC2)cc1"
Result :: -6.73

Query :: Fill in reported cytotoxicity at 10 µM for this entry: "COCCC(=O)N1CC2(CCN(c3ccccc3)C2)C1"
Result :: 10.3

Query :: Return cytotoxicity at 10 µM (reported value) for this compound: NCC(=O)N1CCCC1c1nccnc1Nc1ncccn1 (stereo not given)
Result :: -2.42

Query :: Using known records, supply cytotoxicity at 10 µM for O=C(CCN1CCCC1c1cccc2c1OCCO2)N1CCOCC1 (stereo not given)
Result :: 25.6

Query :: For the compound COC(CNC(=O)c1cc(C)on1)c1ccccc1C (stereo not given) , give its reported cytotoxicity at 10 µM.
Result :: -17.8

Query :: Complete the entry with cytotoxicity at 10 µM for "Cc1ccc(NC2CCN(C(=O)c3cccc4[nH]ncc34)CC2)nn1"
Result :: -13.7

Query :: Read the entry O=C(c1cccnc1O)N(Cc1ccsc1)CC1CCCO1 (stereo not given) and write its reported cytotoxicity at 10 µM.
Result :: -12.3

The reported measurements were obtained from ChEMBL document CHEMBL4513216.
